# Tested on: Enterococcus faecalis EFS.201 (ATCC 49452)
# Format: cell-based
# experimental.conditions: ATCC 49452
measured.attribute: Efs201 MIC

[
  {
    "compound": "C[C@H](CC(=O)O)[C@@H]1NC(=O)[C@@H](CO)NC(=O)CNC(=O)[C@H](CC(=O)O)NC(=O)[C@@H](C)NC(=O)[C@H](CC(=O)O)NC(=O)[C@H](CCCN)NC(=O)CNC(=O)[C@@H](NC(=O)[C@H](CC(=O)O)NC(=O)[C@@H](CC(N)=O)NC(=O)[C@H](Cc2c[nH]c3ccccc23)NC(=O)C2(c3ccc(Cl)cc3)CCCCC2)[C@@H](C)OC(=O)[C@H](CC(=O)c2ccccc2N)NC1=O [Compound 72]",
    "reported.result": ">32 µg/mL"
  },
  {
    "compound": "CCCCCCc1ccc(/C(C)=C/C(=O)N[C@@H](Cc2c[nH]c3ccccc23)C(=O)N[C@H](CC(N)=O)C(=O)N[C@@H](CC(=O)O)C(=O)N[C@@H]2C(=O)NCC(=O)N[C@@H](CCCN)C(=O)N[C@@H](CC(=O)O)C(=O)N[C@H](C)C(=O)N[C@@H](CC(=O)O)C(=O)NCC(=O)N[C@H](CO)C(=O)N[C@@H]([C@H](C)CC(=O)O)C(=O)N[C@@H](CC(=O)c3ccccc3N)C(=O)O[C@@H]2C)cc1 [Compound 50]",
    "reported.result": "0.25 µg/mL"
  }
]

// query Entry under review: C[C@H](CC(=O)O)[C@@H]1NC(=O)[C@@H](CO)NC(=O)CNC(=O)[C@H](CC(=O)O)NC(=O)[C@@H](C)NC(=O)[C@H](CC(=O)O)NC(=O)[C@H](CCCN)NC(=O)CNC(=O)[C@@H](NC(=O)[C@H](CC(=O)O)NC(=O)[C@@H](CC(N)=O)NC(=O)[C@H](Cc2c[nH]c3ccccc23)NC(=O)CCCCCc2ccccc2)[C@@H](C)OC(=O)[C@H](CC(=O)c2ccccc2N)NC1=O [Compound 46] . Reported Efs201 MIC?
// result >32 µg/mL

###

Each entry below carries its recorded Efm384 MIC.
# Tested on: Enterococcus faecium EFM.384, Daptomycin resistant mutant (14-A)
# Format: cell-based
# experimental.conditions: MHBc with 50 mg/L calcium, 18-20 hours at 37° C.

Take a look at these entries with their results.
[
  {
    "molecular.string": "CCCCCCCc1csc(C(=O)N[C@@H](Cc2c[nH]c3ccccc23)C(=O)N[C@H](CC(N)=O)C(=O)N[C@@H](CC(=O)O)C(=O)N[C@@H]2C(=O)NCC(=O)N[C@@H](CCCN)C(=O)N[C@@H](CC(=O)O)C(=O)N[C@H](C)C(=O)N[C@@H](CC(=O)O)C(=O)NCC(=O)N[C@H](CO)C(=O)N[C@@H]([C@H](C)CC(=O)O)C(=O)N[C@@H](CC(=O)c3ccccc3N)C(=O)O[C@@H]2C)c1",
    "reported.result": "16 µg/mL"
  },
  {
    "molecular.string": "CCCCCCCCC(=O)N[C@@H](Cc1c[nH]c2ccccc12)C(=O)N[C@H](CC(N)=O)C(=O)N[C@@H](CC(=O)O)C(=O)N[C@@H]1C(=O)NCC(=O)N[C@@H](CCCN)C(=O)N[C@@H](CC(=O)O)C(=O)N[C@H](C)C(=O)N[C@@H](CC(=O)O)C(=O)NCC(=O)N[C@H](CO)C(=O)N[C@@H]([C@H](C)CC(=O)O)C(=O)N[C@@H](CC(=O)c2ccccc2N)C(=O)O[C@@H]1C",
    "reported.result": ">32 µg/mL"
  }
]

Attention now shifts to the item below.
// query # Efm384 MIC lookup, item "CC(C)Sc1ccc(-c2csc(C(=O)N[C@@H](Cc3c[nH]c4ccccc34)C(=O)N[C@H](CC(N)=O)C(=O)N[C@@H](CC(=O)O)C(=O)N[C@@H]3C(=O)NCC(=O)N[C@@H](CCCN)C(=O)N[C@@H](CC(=O)O)C(=O)N[C@H](C)C(=O)N[C@@H](CC(=O)O)C(=O)NCC(=O)N[C@H](CO)C(=O)N[C@@H]([C@H](C)CC(=O)O)C(=O)N[C@@H](CC(=O)c4ccccc4N)C(=O)O[C@@H]3C)c2)cc1"
// result 8 µg/mL
